test system: THP-1; experiment: Antiinflammatory activity against human THP-1 cells assessed as inhibition of LPS induced IL-23 production preincubated with compound for 1 hr followed by LPS stimulation and measured after 18 hrs by cell based ELISA method; assay type: functional
readout: IC50 (nM)

Worked cases, answers included:
INSERT INTO measurements (record_smiles, unit, reported_measurement) VALUES
  ('NC(=O)[C@@H]1[C@H](Nc2nc(Nc3cccc(C(=O)N4CCCC4)c3)ncc2C2CC2)[C@H]2C=C[C@@H]1C2', 'nM', 90),
  ('NC(=O)[C@@H]1[C@H](Nc2nc(Nc3ccnc(N4CCOCC4)c3)ncc2-c2cccc(F)c2)[C@H]2C=C[C@@H]1C2', 'nM', 40),
  ('NC(=O)[C@@H]1[C@H](Nc2nc(Nc3ccc(C(=O)N4CCCC4)cc3)ncc2-c2cccnc2)[C@H]2C=C[C@@H]1C2', 'nM', 230);

[I] Cc1cc(Nc2ncc(-c3cccnc3)c(N[C@H]3[C@@H](C(N)=O)[C@@H]4C=C[C@H]3C4)n2)ccc1OCCN1CCCC1
[II] N#Cc1ccc(-c2cnc(Nc3cccc(C(=O)N4CCCC4)c3)nc2N[C@H]2[C@@H](C(N)=O)[C@@H]3C=C[C@H]2C3)cc1
[ask] Of I and II , which one carries the higher reported IC50? Return value: the label identifying the chosen record.
[reply] I

[P] CN1CCN(c2cc(Nc3ncc(-c4cccc(F)c4)c(N[C@H]4[C@@H](C(N)=O)[C@@H]5C=C[C@H]4C5)n3)ccn2)CC1
[Q] NC(=O)[C@@H]1[C@H](Nc2nc(Nc3cccc(C(=O)N4CCCC4)c3)ncc2-c2cccc(F)c2)[C@H]2C=C[C@@H]1C2
[ask] Could you check which of P and Q has a smaller value for IC50? Answer format: the label of the selected item.
[reply] P

====

test system: HUVEC; assay: Antiinflammatory activity against HUVEC cells assessed as inhibition of IL-1beta induced IL-6 production preincubated with compound for 1 hr followed by IL-1beta stimulation and measured after 12 hrs by cell based ELISA method; format: functional; settings: Homo sapiens
readout: IC50 (nM)
Give the number; nM is assumed, so skip it.

Measured IC50 (HUVEC), entry NC(=O)[C@@H]1[C@H](Nc2nc(Nc3cccc(C(=O)N4CCCC4)c3)ncc2-c2ccnc(F)c2)[C@H]2C=C[C@@H]1C2 : 110

====

Target: Mitogen-activated protein kinase kinase kinase 7 (Homo sapiens)
Sequence (O43318 whole entry): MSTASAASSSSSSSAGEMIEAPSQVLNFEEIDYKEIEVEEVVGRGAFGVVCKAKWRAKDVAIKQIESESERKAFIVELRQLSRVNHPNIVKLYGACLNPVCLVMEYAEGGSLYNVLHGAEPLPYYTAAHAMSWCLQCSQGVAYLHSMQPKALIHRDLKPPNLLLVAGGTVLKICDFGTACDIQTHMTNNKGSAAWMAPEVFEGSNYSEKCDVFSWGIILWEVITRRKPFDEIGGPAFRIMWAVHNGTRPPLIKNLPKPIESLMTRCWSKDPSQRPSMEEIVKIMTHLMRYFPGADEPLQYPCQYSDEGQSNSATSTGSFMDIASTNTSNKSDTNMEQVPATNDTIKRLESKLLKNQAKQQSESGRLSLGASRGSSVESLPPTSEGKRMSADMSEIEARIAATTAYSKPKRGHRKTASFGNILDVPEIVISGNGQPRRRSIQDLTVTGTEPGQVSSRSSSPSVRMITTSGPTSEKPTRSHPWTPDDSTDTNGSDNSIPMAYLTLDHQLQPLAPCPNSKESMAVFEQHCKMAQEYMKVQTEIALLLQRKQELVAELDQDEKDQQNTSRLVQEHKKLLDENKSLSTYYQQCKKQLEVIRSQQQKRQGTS
Experiment: Inhibition of TAK1 (unknown origin) in presence of MBP as substrate by ADP-Glo assay
pIC50: −log10 of the molar value.
readout: pIC50

// worked examples, pIC50 included
INSERT INTO measurements (record_smiles, reported_measurement) VALUES
  ('NC(=O)[C@@H]1[C@H](Nc2nc(Nc3ccnc(N4CCCC4)c3)ncc2-c2cccc(F)c2)[C@H]2C=C[C@@H]1C2', 5.62),
  ('CN1CCN(c2cc(Nc3ncc(-c4cccc(F)c4)c(N[C@H]4[C@@H](C(N)=O)[C@@H]5C=C[C@H]4C5)n3)ccn2)CC1', 6.92),
  ('N#Cc1cccc(-c2cnc(Nc3cccc(C(=O)N4CCCC4)c3)nc2N[C@H]2[C@@H](C(N)=O)[C@@H]3C=C[C@H]2C3)c1', 7.00),
  ('NC(=O)[C@@H]1[C@H](Nc2nc(Nc3cccc(-c4cnco4)c3)ncc2-c2cccc(F)c2)[C@H]2C=C[C@@H]1C2', 6.57);

[I] NC(=O)[C@@H]1[C@H](Nc2nc(Nc3ccc(OCCN4CCCC4)cc3)ncc2-c2cccnc2)[C@H]2C=C[C@@H]1C2
[II] CN1CCN(C(=O)c2cccc(Nc3ncc(-c4cccc(F)c4)c(N[C@H]4[C@@H](C(N)=O)[C@@H]5C=C[C@H]4C5)n3)c2)CC1
[III] NC(=O)[C@@H]1[C@H](Nc2nc(Nc3cccc(C(=O)N4CCCC4)c3)ncc2-c2ccsc2)[C@H]2C=C[C@@H]1C2
[ask] Let's sort these by pIC50, smallest first. Go ahead? Quick reminder: the answer is the labels in the order asked.
[reply] I, II, III

====

test system: THP-1; assay: Antiinflammatory activity against human THP-1 cells assessed as inhibition of LPS induced IL-23 production preincubated with compound for 1 hr followed by LPS stimulation and measured after 18 hrs by cell based ELISA method; type: functional
pIC50: −log10 of the molar value.
readout: pIC50

These solved cases illustrate the format of a correct answer.
INSERT INTO results (record_smiles, reported_measurement) VALUES
  ('NC(=O)[C@@H]1[C@H](Nc2nc(Nc3cccc(C(=O)N4CCCC4)c3)ncc2-c2cccnc2)[C@H]2C=C[C@@H]1C2', 6.49),
  ('N#Cc1cccc(-c2cnc(Nc3cccc(C(=O)N4CCCC4)c3)nc2N[C@H]2[C@@H](C(N)=O)[C@@H]3C=C[C@H]2C3)c1', 6.55),
  ('NC(=O)[C@@H]1[C@H](Nc2nc(Nc3cc(F)cc(N4CCOCC4)c3)ncc2-c2cccc(F)c2)[C@H]2C=C[C@@H]1C2', 6.60),
  ('CN1CCN(c2cc(F)cc(Nc3ncc(-c4cccc(F)c4)c(N[C@H]4[C@@H](C(N)=O)[C@@H]5C=C[C@H]4C5)n3)c2)CC1', 6.59);

[a] NC(=O)[C@@H]1[C@H](Nc2nc(Nc3cccc(C(=O)N4CCOCC4)c3)ncc2-c2cccc(F)c2)[C@H]2C=C[C@@H]1C2
[b] Cc1cnc(Nc2cccc(C(=O)N3CCCC3)c2)nc1N[C@H]1[C@@H](C(N)=O)[C@@H]2C=C[C@H]1C2
[c] NC(=O)[C@@H]1[C@H](Nc2nc(Nc3cccc(C(=O)N4CCCC4)c3)ncc2-c2ccc(F)cc2)[C@H]2C=C[C@@H]1C2
[ask] Arrange by pIC50, high to low. Respond with an ordered listing of the labels, as requested.
[reply] b, a, c
(b: 7.00, a: 6.66, c: 6.34)

[I] NC(=O)[C@@H]1[C@H](Nc2nc(Nc3cccc(C(=O)N4CCCC4)c3)ncc2-c2ccncc2)[C@H]2C=C[C@@H]1C2
[II] NC(=O)[C@@H]1[C@H](Nc2nc(Nc3cccc(C(=O)N4CCCC4)c3)ncc2-c2ccccc2F)[C@H]2C=C[C@@H]1C2
[III] NC(=O)[C@@H]1[C@H](Nc2nc(Nc3ccc(OCCN4CCCC4)cc3)ncc2-c2cccnc2)[C@H]2C=C[C@@H]1C2
[ask] Sort (3 compounds) by pIC50: min first. Reply format: the labels, ordered as requested.
[reply] III, I, II
(III: 6.15, I: 6.49, II: 6.89)

[A] NC(=O)[C@@H]1[C@H](Nc2nc(Nc3ccnc(N4CCCC4)c3)ncc2-c2cccc(F)c2)[C@H]2C=C[C@@H]1C2
[B] NC(=O)[C@@H]1[C@H](Nc2nc(Nc3cccc(C(=O)N4CCCC4)c3)ncc2-c2ccsc2)[C@H]2C=C[C@@H]1C2
[C] NC(=O)[C@@H]1[C@H](Nc2nc(Nc3cccc(C(=O)N4CCCC4)c3)ncc2-c2ccoc2)[C@H]2C=C[C@@H]1C2
[ask] Which order do these items take when sorted by rising pIC50? List them. Hello, could you send the labels back in the order asked? Thank you.
[reply] A, B, C
(A: 6.55, B: 6.96, C: 7.40)

====

In what follows, each item is paired with its IC50 for Interleukin-1 receptor-associated kinase 4 (Homo sapiens, UniProt Q9NWZ3).
readout: IC50 (µM)

Solved entries:
INSERT INTO measurements (record_smiles, reported_measurement) VALUES
  ('NC(=O)[C@@H]1[C@H](Nc2nc(Nc3cccc(C(=O)N4CCOCC4)c3)ncc2-c2cccc(F)c2)[C@H]2C=C[C@@H]1C2', 0.014),
  ('NC(=O)[C@@H]1[C@H](Nc2nc(Nc3ccnc(N4CCCC4)c3)ncc2-c2cccc(F)c2)[C@H]2C=C[C@@H]1C2', 0.033);

[1] Cc1cc(Nc2ncc(-c3cccnc3)c(N[C@H]3[C@@H](C(N)=O)[C@@H]4C=C[C@H]3C4)n2)ccc1OCCN1CCCC1
[2] NC(=O)[C@@H]1[C@H](Nc2nc(Nc3cc(F)cc(N4CCOCC4)c3)ncc2-c2cccc(F)c2)[C@H]2C=C[C@@H]1C2
[ask] Please indicate which has the smaller reported IC50: 1 , or 2 . Please respond with the label that marks your chosen entry.
[reply] 2
